Sourced from PubChem BioAssay (NCI)

# Tested on: OVCAR-5 ovarian
# ASSAY INFO: NCI-60 one-dose screen, 48 h (100 = growth as untreated, 0 = no growth, -100 = all killed)
# PARTICULARS: 10 µM unless noted
About 83,000 compounds went through this panel and 20% of them were active in at least one assay; those are over-represented in the sample as a whole.
ASSAY READOUT: growth (%)
Please state the figure in %; there is no need to write the unit.

Incoming: Query (molecule): NC1=NN(c2ccccc2)C(=O)/C1=C/c1ccc(Cl)cc1 ; field requested: growth
Outgoing: 98.1

Incoming: Then what about the molecule COC1=C(Br)C(=O)C(OC)=C(Br)C1=O ?
Outgoing: 113

Incoming: Then what about the molecule O=S(=O)(NCCNc1cc(-c2cn(-c3ccccc3)nc2-c2cccc(O)c2)ccn1)c1ccc(F)cc1 ?
Outgoing: 62.9

Incoming: Then what about the molecule Cn1cccc1/C=C1/SC(=S)N(CCc2ccc(O)cc2)C1=O ?
Outgoing: 95.9

Incoming: Then what about the molecule O=C1/C(=C\C(Cl)=C/c2ccc([N+](=O)[O-])cc2)SC(=S)N1CCc1ccc(O)cc1 ?
Outgoing: -33.9
